inhibition overview
Experimental Target: Bromodomain-containing protein 4 (Homo sapiens)
Assay Procedure: Inhibition of human recombinant BRD4 BD1 (42 to 167 residues) extracted from Escherichia coli BL21 (DE3) at 10 uM incubated for 2 hrs by TR-FRET assay relative to control
Measurement Name: inhibition (%)

Input Smiles	Data Value
COc1cc(OC)c2c(=O)[nH]c(C3CCN(Cc4ccccc4)CC3)nc2c1	51
COc1ccc(CCc2nc3cc(OC)cc(OC)c3c(=O)[nH]2)cc1	12
O=C(c1ccc2ccccc2c1)c1nc2ccccc2c(=O)[nH]1	16
COc1ccc(C(=O)c2nc3ccccc3c(=O)[nH]2)cc1	54
COc1ccc(Cc2nc3cc(OC)cc(OC)c3c(=O)[nH]2)cc1	56

----------
Experimental Target: Bromodomain-containing protein 4 (Homo sapiens, UniProt O60885)
Assay Procedure: Inhibition of human recombinant BRD4 BD2 (349 to 460 residues) extracted from Escherichia coli BL21 (DE3) at 10 uM incubated for 2 hrs by TR-FRET assay relative to control
Items are presented alongside their recorded inhibition.
Measurement Name: inhibition (%)

Compound	Measurement Name	Data Value
COc1cc(C(=O)c2nc3ccccc3c(=O)[nH]2)cc(OC)c1OC	inhibition	15
COc1cc(OC)c2c(=O)[nH]c(/C=C/c3cc(OC)c(O)c(OC)c3)nc2c1	inhibition	98
COc1ccc(C(=O)c2nc3cc(OC)cc(OC)c3c(=O)[nH]2)cc1	inhibition	51
COc1cc(OC)c2c(=O)[nH]c(/C(C)=C/c3ccccc3)nc2c1	inhibition	59
COc1ccc(/C=C/c2nc3cc(OC)cc(OC)c3c(=O)[nH]2)cc1	inhibition	89
COc1cc(OC)c2c(=O)[nH]c(-c3cc(C)c(OCCO)c(C)c3)nc2c1 [APABETALONE]	inhibition	99
COc1cc(OC)c2c(=O)[nH]c(C(=O)c3ccc(OC)c(OC)c3)nc2c1	inhibition	47
COc1ccc(C(=O)c2nc3cc(OC)c(I)c(OC)c3c(=O)[nH]2)cc1	inhibition	53
COc1cc(OC)c2c(=O)[nH]c(C(=O)c3cccc(C#N)c3)nc2c1	inhibition	48

The reported measurements were obtained from ChEMBL document CHEMBL6121006.
